Hey, just so you know, these numbers are from BindingDB's records for doi:10.1021/jm00128a027.

# Assayed System: Polyunsaturated fatty acid 5-lipoxygenase (Cavia porcellus)
# Assay Method Text: In vitro inhibition of polymorphonuclear leukocyte derived guinea pig 5-lipoxygenase
Result Type: pIC50
For clarity, pIC50 is expressed as the negative log10 of concentration in mol/L.

{"columns": ["Smiles Input", "Assayed System", "pIC50"],
 "data": [
  ["O=C(CCCc1ccccc1)N(O)CCc1ccccc1", "Polyunsaturated fatty acid 5-lipoxygenase (Cavia porcellus)", 6.89]
]}

Looking up O=C(c1ccc(OCc2ccccc2)cc1)N(O)CCc1ccccc1 , I see its pIC50 listed as 7.30
